The compounds listed here are annotated with their pIC50.
target: Induced myeloid leukemia cell differentiation protein Mcl-1 (Homo sapiens); assay: Inhibition of biotinylated Bim peptide (81 to 106 residues) binding to His-tagged human Mcl-1 expressed in Escherichia coli BL21 (DE3) cells preincubated for 1 hr followed by biotinylated Bim peptide addition measured after 2 hrs by ELISA
Sequence (Q07820 whole entry, the tested form may be a part): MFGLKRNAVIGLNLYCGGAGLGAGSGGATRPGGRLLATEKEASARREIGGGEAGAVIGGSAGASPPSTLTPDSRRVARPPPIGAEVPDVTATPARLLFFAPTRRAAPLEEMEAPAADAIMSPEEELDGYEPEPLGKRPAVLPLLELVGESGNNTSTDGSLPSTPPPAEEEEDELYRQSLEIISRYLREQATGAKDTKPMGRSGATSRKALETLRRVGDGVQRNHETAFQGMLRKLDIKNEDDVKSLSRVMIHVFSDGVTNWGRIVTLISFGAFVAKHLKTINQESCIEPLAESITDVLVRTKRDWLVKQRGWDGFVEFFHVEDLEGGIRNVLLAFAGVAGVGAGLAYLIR
Please keep in mind that pIC50 is minus log10 of the molar concentration; only the number is needed.

As a guide, the following entries are already answered.
• N#CC1=C(NCCC(=O)NCCCCNc2cccc3c2C(=O)N(C2CCC(=O)NC2=O)C3=O)c2ccc(Sc3ccc(Br)cc3)c3cccc(c23)C1=O (stereo not given) = 5.00
• N#CC1=C(NCCC(=O)NCCNc2cccc3c2C(=O)N(C2CCC(=O)NC2=O)C3=O)c2ccc(Sc3ccc(Br)cc3)c3cccc(c23)C1=O (stereo not given) = 4.97
• N#CC1=C(NCCC(=O)NCCOCCOCCNc2cccc3c2C(=O)N(C2CCC(=O)NC2=O)C3=O)c2ccc(Sc3ccc(Br)cc3)c3cccc(c23)C1=O (stereo not given) = 5.64
• O=C(CCCCC(=O)NCCN1C(=O)c2cccc3c(Sc4ccc(Br)cc4)ccc(c23)C1=O)NCCCCCCCCNc1cccc2c1C(=O)N(C1CCC(=O)NC1=O)C2=O (stereo not given) = 5.27
• O=C(CCCCC(=O)NCCN1C(=O)c2cccc3c(Sc4ccc(Br)cc4)ccc(c23)C1=O)NCCCCCCNc1cccc2c1C(=O)N(C1CCC(=O)NC1=O)C2=O (stereo not given) = 6.11
• N#CC1=C(NCCC(=O)NCCCCCCNc2cccc3c2C(=O)N(C2CCC(=O)NC2=O)C3=O)c2ccc(Sc3ccc(Br)cc3)c3cccc(c23)C1=O (stereo not given) = 5.12

query: Which pIC50 is listed for `N#CC1=C(C#N)c2ccc(Sc3ccc(Br)cc3)c3cccc(c23)C1=O` ?
result: 5.69

query: Repeat for the following compound: `CC(C)(C)c1ccc(C(=O)NCCN2C(=O)c3cccc4c(Sc5ccc(Br)cc5)ccc(c34)C2=O)cc1`
result: 5.35

query: Follow-up entry: N#CC1=C(NCCC(=O)NCCCCCC(=O)NCCCCCCNc2cccc3c2C(=O)N(C2CCC(=O)NC2=O)C3=O)c2ccc(Sc3ccc(Br)cc3)c3cccc(c23)C1=O (stereo not given)
result: 4.80

query: Again, but for O=C(CCCCC(=O)NCCN1C(=O)c2cccc3c(Sc4ccc(Br)cc4)ccc(c23)C1=O)NCCCCNc1cccc2c1C(=O)N(C1CCC(=O)NC1=O)C2=O (stereo not given)
result: 5.82

query: And for `COC(=O)CCNC1=C(C#N)C(=O)c2cccc3c(Sc4ccc(Br)cc4)ccc1c23` ?
result: 5.46

query: Follow-up entry: O=C(CCCCC(=O)NCCN1C(=O)c2cccc3c(Sc4ccc(Br)cc4)ccc(c23)C1=O)NCCNc1cccc2c1C(=O)N(C1CCC(=O)NC1=O)C2=O (stereo not given)
result: 5.10

query: Now give it for O=C(CCCCCNc1cccc2c1C(=O)N(C1CCC(=O)NC1=O)C2=O)NCCCCCCNC(=O)CCCCC(=O)NCCN1C(=O)c2cccc3c(Sc4ccc(Br)cc4)ccc(c23)C1=O (stereo not given) too.
result: 4.82

query: Moving on to `COC(=O)CCCCC(=O)NCCN1C(=O)c2cccc3c(Sc4ccc(Br)cc4)ccc(c23)C1=O`
result: 5.23

query: Same question for O=C(CCCCC(=O)NCCN1C(=O)c2cccc3c(Sc4ccc(Br)cc4)ccc(c23)C1=O)NCCOCCOCCNc1cccc2c1C(=O)N(C1CCC(=O)NC1=O)C2=O (stereo not given) please.
result: 4.93
